pIC50: recorded values
# SYSTEM_NAME: EGFR (Homo sapiens (Human), UniProt P00533)
# Sequence (P00533 25-1210): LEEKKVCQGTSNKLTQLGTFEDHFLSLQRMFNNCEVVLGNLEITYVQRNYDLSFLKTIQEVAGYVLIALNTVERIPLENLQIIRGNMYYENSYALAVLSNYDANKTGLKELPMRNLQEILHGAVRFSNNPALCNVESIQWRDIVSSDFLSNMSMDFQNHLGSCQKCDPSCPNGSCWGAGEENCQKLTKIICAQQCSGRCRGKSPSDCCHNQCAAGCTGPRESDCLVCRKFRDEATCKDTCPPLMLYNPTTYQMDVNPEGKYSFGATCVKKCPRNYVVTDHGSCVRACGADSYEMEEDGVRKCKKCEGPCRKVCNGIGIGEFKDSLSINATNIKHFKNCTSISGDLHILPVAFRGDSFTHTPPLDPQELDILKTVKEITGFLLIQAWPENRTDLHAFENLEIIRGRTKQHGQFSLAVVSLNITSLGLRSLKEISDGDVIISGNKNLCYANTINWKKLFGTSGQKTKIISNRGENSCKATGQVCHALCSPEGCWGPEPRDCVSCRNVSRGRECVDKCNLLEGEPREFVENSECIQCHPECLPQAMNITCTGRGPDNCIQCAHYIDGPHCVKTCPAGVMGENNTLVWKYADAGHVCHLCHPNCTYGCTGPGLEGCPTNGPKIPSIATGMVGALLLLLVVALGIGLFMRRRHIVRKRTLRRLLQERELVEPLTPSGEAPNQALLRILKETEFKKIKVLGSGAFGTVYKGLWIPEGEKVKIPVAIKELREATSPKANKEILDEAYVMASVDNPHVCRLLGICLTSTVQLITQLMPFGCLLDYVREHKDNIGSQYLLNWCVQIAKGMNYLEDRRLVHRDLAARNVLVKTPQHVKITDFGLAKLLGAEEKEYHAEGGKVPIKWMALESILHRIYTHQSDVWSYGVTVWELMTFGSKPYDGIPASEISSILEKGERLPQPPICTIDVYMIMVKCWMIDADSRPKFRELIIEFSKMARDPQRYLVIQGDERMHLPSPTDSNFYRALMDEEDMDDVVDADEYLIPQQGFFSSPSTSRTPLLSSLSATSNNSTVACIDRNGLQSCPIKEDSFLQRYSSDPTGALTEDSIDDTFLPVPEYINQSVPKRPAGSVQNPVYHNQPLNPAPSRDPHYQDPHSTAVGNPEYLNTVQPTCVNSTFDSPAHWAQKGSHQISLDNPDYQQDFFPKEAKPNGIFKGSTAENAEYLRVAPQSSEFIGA
# TEST_DESCRIPTION: ErbB Enzyme Assay (HTRF KinEASE-TK), Assay 3
# Format: biochemical
# CONDITION_DESCRIPTION: EGFR enzyme assay
Interpret pIC50 as the negative base-10 log of the concentration measured in mol/L.

- C=CC(=O)N1C[C@H]2CC[C@H](c3ccc4ncnc(Nc5ccc(Oc6ccn7ncnc7c6)c(C)c5)c4n3)[C@H]2C1: 5.71
- C=CC(=O)N1CC(c2ccc3ncnc(Nc4ccc(Oc5ccn6ncnc6c5)c(C)c4F)c3n2)C1: 5.68
- C=CC(=O)N1CCN(c2ccc3ncnc(Nc4ccc(Oc5ccn6ncnc6c5)c(C)c4F)c3n2)C[C@@H]1C(F)F (racemic): 6.78
- C=CC(=O)N1C[C@@H]2CN(c3ccc4ncnc(Nc5ccc(Oc6ccn7ncnc7c6)c(C)c5F)c4n3)C[C@@H]21: 5.86

Incoming: Sample C=CC(=O)N1[C@@H]2CC[C@H]1[C@H](c1ccc3ncnc(Nc4ccc(Oc5ccn6ncnc6c5)c(Cl)c4F)c3n1)C2 — what was its pIC50?
Outgoing: 6.98

Incoming: Sample C=CC(=O)N1CC(Cc2ccc3ncnc(Nc4ccc(Oc5ccn6ncnc6c5)c(C)c4F)c3n2)C1 — what was its pIC50?
Outgoing: 6.59

###

IC50: recorded values
# SYSTEM_NAME: UniProt P00533
# TEST_DESCRIPTION: Cellular Phosphorylation Assay, Assay 5 (EGF-stimulated EGFR phosphorylation, NIH 3T3 cells)
# Assay type: cell-based
# CONDITION_DESCRIPTION: cellular EGFR WT phosphorylation, EGF-stimulated
# Protocol: NIH 3T3 cells were engineered to express ErbB2 with Exon 20 YVMA insertion (HER2-YVMA (SEQ ID NO: 2); Assay 4) or EGFR wild type (EGFR WT; Assay 5) with constructs obtained from GenScript and grown in DMEM supplemented with 10% fetal bovine serum and 15 μg/ml blasticidin. […] Serially diluted compounds were added to the plates for 1 hour at 37° C./5% CO2. EGFR WT cells were stimulated with 100 ng/ml rEGF for an additional 10 minutes at 37° C./5% CO2. […]
Write the number in nM without appending the unit.

Completed entries (count: 2):
• C=CC(=O)N1C[C@@H](c2ccc3ncnc(Nc4ccc(Oc5ccn6ncnc6c5)c(C)c4F)c3n2)C[C@@H]1C (mixture of isomers) = 1950
• C=CC(=O)N1CCN(c2ccc3ncnc(Nc4cc(C)c(Oc5ccn6ncnc6c5)cc4F)c3n2)CC12CC2 = 417

Kindly review the next compound as well.
Incoming: Hi! What's the reported IC50 for C=CC(=O)N1CC2CCC(C1)N2c1ccc2ncnc(Nc3cc(Cl)c(Oc4ccn5ncnc5c4)cc3F)c2n1 on UniProt P00533?
Outgoing: 770

###

# SYSTEM_NAME: EGFR (Homo sapiens (Human))
# TEST_DESCRIPTION: ErbB Enzyme Assay (HTRF KinEASE-TK), Assay 3
# Type: biochemical
# CONDITION_DESCRIPTION: EGFR enzyme assay
PARAMETER_MEASURED: pIC50
Interpret pIC50 as the negative base-10 log of the concentration measured in mol/L.

Incoming: Hi! What's the reported pIC50 for C=CC(=O)N1CCCC(c2ccc3ncnc(Nc4cc(C)c(Oc5ccn6ncnc6c5)cc4F)c3n2)C1 (stereo not drawn) on EGFR (Homo sapiens (Human))?
Outgoing: 5.70
